- EXPERIMENTAL_SYSTEM: 5-HT2C receptor (Homo sapiens)
- Construct: host or cells: HEK293
- Sequence (P28335 33-458): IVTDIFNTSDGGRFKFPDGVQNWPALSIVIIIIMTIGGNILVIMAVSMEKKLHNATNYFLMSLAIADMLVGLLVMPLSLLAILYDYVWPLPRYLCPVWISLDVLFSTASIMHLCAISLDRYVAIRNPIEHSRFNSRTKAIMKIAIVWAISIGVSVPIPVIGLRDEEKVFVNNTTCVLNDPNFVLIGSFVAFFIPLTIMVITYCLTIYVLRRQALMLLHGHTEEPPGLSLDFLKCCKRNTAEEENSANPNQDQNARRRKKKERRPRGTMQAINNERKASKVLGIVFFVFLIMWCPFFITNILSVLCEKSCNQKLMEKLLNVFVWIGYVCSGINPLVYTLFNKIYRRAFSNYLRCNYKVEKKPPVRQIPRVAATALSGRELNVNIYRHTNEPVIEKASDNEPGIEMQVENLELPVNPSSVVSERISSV
- METHOD_SUMMARY: FLIPR Ca2+ flux functional assay, agonist activity at 5-HT2C
- Format: cell-based
- CONDITIONS: stably transfected HEK293 cells
Provide the reported EC50 of each item.
Give bare numbers, in µM.

>  <MOLECULE>
COc1cccc(CNCCc2c[nH]c3ncc(Br)cc23)c1 [Compound S63]

>  <MEAS_VALUE>
2.97

$$$$
>  <MOLECULE>
N#Cc1cnc2[nH]cc(CCNCc3ccccc3F)c2c1 [Compound S72]

>  <MEAS_VALUE>
5.07

$$$$
>  <MOLECULE>
Fc1cnc2[nH]cc(CCNCc3ccccc3F)c2c1 [Compound S30]

>  <MEAS_VALUE>
0.512

$$$$
>  <MOLECULE>
Fc1cnc2[nH]cc(CCNCc3ccccc3)c2c1 [Compound S34]

>  <MEAS_VALUE>
0.319

$$$$
>  <MOLECULE>
Fc1cnc2[nH]cc(CCN3CCC3)c2c1 [Compound S9]

>  <MEAS_VALUE>
1.48

$$$$
>  <MOLECULE>
C[C@@H]1CCCN1CCc1c[nH]c2ncc(F)cc12 [Compound S50]

>  <MEAS_VALUE>
3.98

$$$$

Each molecule below has a reported value. Please supply its EC50.
1. COc1ccccc1CNCCc1c[nH]c2ncc(Br)cc12 [Compound S62]
2. Fc1cnc2[nH]cc(CCN3CCC4CC43)c2c1 (stereo not drawn) [Compound S25]
3. CN(CCc1c[nH]c2ncc(Cl)cc12)C1CC1 [Compound S42]
4. COc1ccccc1CNCCc1c[nH]c2ncc(C#N)cc12 [Compound S74]
5. Fc1cnc2[nH]cc(CCN3CCCC3)c2c1 [Compound S6]
6. Brc1cnc2[nH]cc(CCN3CCCC3)c2c1 [Compound S57]
7. CN(CCc1c[nH]c2ncc(F)cc12)C1CCC1 [Compound S12]

1: 0.48; 2: 0.076; 3: 1.1; 4: 1.88; 5: 1.86; 6: 3.48; 7: 3.37

Go through the items and report each one's EC50.
1. CCN(C)CCc1c[nH]c2ncc(Cl)cc12 [Compound S52]
2. COc1cnc2[nH]cc(CCN(C)C3CC3)c2c1 [Compound S44]
3. CN(CCc1c[nH]c2ncc(C#N)cc12)C1CC1 [Compound S68]

1.95
2.83
4.57

Please report EC50 for every entry that follows.
1. COc1cccc(CNCCc2c[nH]c3ncc(C#N)cc23)c1 [Compound S75]
2. CC(C)N(C)CCc1c[nH]c2ncc(Cl)cc12 [Compound S53]
3. Fc1ccccc1CNCCc1c[nH]c2ncc(Br)cc12 [Compound S60]
4. CN(CCc1c[nH]c2ncc(F)cc12)C1CC1 [Compound S1]
5. Fc1cnc2[nH]cc(CCNCC3CC3)c2c1 [Compound S17]
6. CN(CCc1c[nH]c2ncc(Br)cc12)C1CC1 [Compound S56]
7. CN(CCc1c[nH]c2ncc(F)cc12)CC1CC1 [Compound S43]

1. 3.62
2. 2.58
3. 1.79
4. 1.44
5. 4.12
6. 1.85
7. 2.74
